- MEASURED_ON: placental alkaline phosphatase (ALPP), human
- METHOD_SUMMARY: human placental alkaline phosphatase inhibition – biochemical, luminescence, confirmation (AID 1512)
- CONDITION_PARAMETERS: purified PLAP enzyme, luminescent substrate read-out
pIC50: −log10 of the molar value.
Rule: pIC50 under 5 gives false, otherwise true.

Known results for molecules:
CHEMICAL_STRING	MEASURED_ON	ASSIGNED_CLASS
Cc1cn(CC(=O)c2ccc(O)c(O)c2)cn1	placental alkaline phosphatase (ALPP), human	true
O=C(Cn1ccnc1-c1ccccc1)c1ccc(O)c(O)c1	placental alkaline phosphatase (ALPP), human	false

Here is the next item to consider.
Exam item: Assess whether reported pIC50 for `Cc1cc2ncn(CC(=O)c3ccc(O)c(O)c3)c2cc1C` sits at 5 or higher.
Marked response: true

* * *

- MEASURED_ON: placental alkaline phosphatase (ALPP), human
- METHOD_SUMMARY: human placental alkaline phosphatase inhibition – biochemical, luminescence, confirmation (AID 1512)
- CONDITION_PARAMETERS: purified PLAP enzyme, luminescent substrate read-out
QUANTITY: IC50

Worked examples, 3 compounds total:
CHEMICAL_STRING	IC50
CC(C)NCC(=O)c1ccc(O)c(O)c1	39.3 µM
O=C(CNc1nc2ccccc2[nH]1)c1ccc(O)c(O)c1	9.11 µM
Cc1nc(Br)cn1CC(=O)c1ccc(O)c(O)c1	4.96 µM

// next entry
Exam item: Would you mind telling me what IC50 value was observed for `Cc1cc(C)nc(NCc2ccc(O)c(O)c2)n1` ?
Marked response: 51.2 µM

Recorded values, source PubChem BioAssay AID1512.
